Molecular target: recombinant human his-UBA6 enzyme (Homo sapiens (Human))
Sequence (A0AVT1 whole entry): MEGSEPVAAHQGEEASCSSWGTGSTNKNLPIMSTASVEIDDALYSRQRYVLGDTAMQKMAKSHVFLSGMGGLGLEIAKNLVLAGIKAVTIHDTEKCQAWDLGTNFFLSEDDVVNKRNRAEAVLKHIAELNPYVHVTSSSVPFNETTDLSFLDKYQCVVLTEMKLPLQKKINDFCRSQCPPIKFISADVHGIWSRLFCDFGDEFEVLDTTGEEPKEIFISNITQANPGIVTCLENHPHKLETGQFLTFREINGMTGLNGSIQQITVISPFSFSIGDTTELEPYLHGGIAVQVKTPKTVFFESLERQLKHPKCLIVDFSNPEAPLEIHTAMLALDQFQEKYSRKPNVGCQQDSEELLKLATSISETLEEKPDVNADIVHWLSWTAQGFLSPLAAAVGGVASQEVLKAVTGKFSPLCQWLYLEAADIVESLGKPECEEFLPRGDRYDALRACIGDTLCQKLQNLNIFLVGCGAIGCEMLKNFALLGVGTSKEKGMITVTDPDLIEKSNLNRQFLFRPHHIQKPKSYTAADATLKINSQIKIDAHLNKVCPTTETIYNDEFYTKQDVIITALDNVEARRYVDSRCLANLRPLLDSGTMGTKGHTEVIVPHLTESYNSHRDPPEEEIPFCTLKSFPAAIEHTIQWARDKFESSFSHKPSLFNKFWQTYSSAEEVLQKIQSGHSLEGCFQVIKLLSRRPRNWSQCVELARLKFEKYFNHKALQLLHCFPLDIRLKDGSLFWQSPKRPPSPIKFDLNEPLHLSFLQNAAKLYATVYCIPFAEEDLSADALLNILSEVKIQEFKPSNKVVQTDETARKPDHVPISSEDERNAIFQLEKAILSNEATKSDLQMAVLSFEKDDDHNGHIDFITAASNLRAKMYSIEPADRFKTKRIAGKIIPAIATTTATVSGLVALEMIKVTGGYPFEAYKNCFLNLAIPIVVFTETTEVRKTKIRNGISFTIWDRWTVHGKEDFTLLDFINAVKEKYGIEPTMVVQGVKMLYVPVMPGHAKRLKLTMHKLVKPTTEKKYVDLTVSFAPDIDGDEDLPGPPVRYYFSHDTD
Experiment: UBA6 AlphaScreen Assay
Assay type: biochemical
Conditions: compound at 0.123 μM
Structures can show the parent of a compound that is named as a salt.
Assign class by inhibition at 0.123 µM: not lower than 60% means Criterion met; lower than 60% means Criterion not met.

Below, 5 molecules whose answers are already recorded.
Inquiry: Check if inhibition at 0.123 µM >= 60% (inclusive). Item: Cc1ccc2cc(-c3ncnc4c3ccn4[C@@H]3C[C@@H](COS(N)(=O)=O)[C@@H](O)C3)[nH]c2c1 [Compound I-06]
Reply text: Criterion met

Inquiry: Check if inhibition at 0.123 µM >= 60% (inclusive). Item: COc1ccc2cc(-c3ncnc4c3ccn4[C@@H]3C[C@@H](COS(N)(=O)=O)[C@@H](O)C3)[nH]c2c1 [Compound I-07]
Reply text: Criterion met

Inquiry: Check if inhibition at 0.123 µM >= 60% (inclusive). Item: COc1cccc2cc(-c3ncnc4c3ccn4[C@@H]3C[C@@H](COS(N)(=O)=O)[C@@H](O)C3)[nH]c12 [Compound I-12]
Reply text: Criterion not met

Inquiry: Check if inhibition at 0.123 µM >= 60% (inclusive). Item: Cc1nc(-c2cc3ccccc3[nH]2)c2ccn([C@@H]3C[C@@H](COS(N)(=O)=O)[C@@H](O)C3)c2n1 [Compound I-08, HCl]
Reply text: Criterion met

Inquiry: Check if inhibition at 0.123 µM >= 60% (inclusive). Item: NS(=O)(=O)OC[C@@H]1C[C@@H](n2ccc3c(-c4cc5ccc(C(F)(F)F)cc5[nH]4)ncnc32)C[C@@H]1O [Compound I-14]
Reply text: Criterion not met

Next item in the queue.
Inquiry: Check if inhibition at 0.123 µM >= 60% (inclusive). Item: Cn1c(-c2ncnc3c2ccn3[C@@H]2C[C@@H](COS(N)(=O)=O)[C@@H](O)C2)cc2ccccc21 [Compound I-02, HCl]
Reply text: Criterion not met
